Let's look at some compounds and their measured TGI.
Test system: SF-268 CNS
protocol description: NCI tumour cell line growth inhibition, 48 h

Below: 3 compounds and their reported TGI.
compound	result
CCCCCCCCCC(=O)OCC1OC(n2cc(F)c(=O)[nH]c2=O)C(N)C(OC(=O)CCCCCCCCC)C1O (centres undefined)	40.2 µM
COC1/C=C\OC2(C)Oc3c(C)c(O)c4c(O)c(c(CN(C)C)c(O)c4c3C2=O)NC(=O)/C(C)=C\C=C/C(C)C(O)C(C)C(O)C(C)C(OC(C)=O)C1C (centres undefined)	> 100 µM
COC(=O)C(Cc1c[nH]c2ccccc12)NP(=O)(O)OCC1OC(n2cc(F)c(=O)[nH]c2=O)CC1O (centres undefined)	> 100 µM

Return value of TGI for input COC(=O)C1C(=O)O[C@@H](c2ccc(OC)cc2OC)C1C(=O)OC (some centres undefined) , no commentary.
> 100 µM

Return value of TGI for input C=CC1(c2ccc(Br)cc2)OCCCO1 , no commentary.
> 100 µM

Return value of TGI for input CCOC(=O)C1C(c2ccc([N+](=O)[O-])cc2)NC(c2ccc([N+](=O)[O-])cc2)C(C(=O)OC)S1(=O)=O (centres undefined) , no commentary.
> 100 µM

Return value of TGI for input C/C(=C/CNc1ncnc2c1ncn2CCC#N)CO , no commentary.
> 100 µM

Return value of TGI for input CC(C)N(c1cc2c(cc1F)c(=O)c(C(=O)O)cn2-c1ccc(N2CCN(C)CC2)cn1)C(C)C , no commentary.
> 100 µM

Source: PubChem BioAssay (NCI)
